target: Transient receptor potential cation channel subfamily A member 1 (Homo sapiens); assay: Agonist activity at human TRPA1 expressed in HEK293 cells assessed as increase in intracellular calcium level
Sequence (O75762 whole entry): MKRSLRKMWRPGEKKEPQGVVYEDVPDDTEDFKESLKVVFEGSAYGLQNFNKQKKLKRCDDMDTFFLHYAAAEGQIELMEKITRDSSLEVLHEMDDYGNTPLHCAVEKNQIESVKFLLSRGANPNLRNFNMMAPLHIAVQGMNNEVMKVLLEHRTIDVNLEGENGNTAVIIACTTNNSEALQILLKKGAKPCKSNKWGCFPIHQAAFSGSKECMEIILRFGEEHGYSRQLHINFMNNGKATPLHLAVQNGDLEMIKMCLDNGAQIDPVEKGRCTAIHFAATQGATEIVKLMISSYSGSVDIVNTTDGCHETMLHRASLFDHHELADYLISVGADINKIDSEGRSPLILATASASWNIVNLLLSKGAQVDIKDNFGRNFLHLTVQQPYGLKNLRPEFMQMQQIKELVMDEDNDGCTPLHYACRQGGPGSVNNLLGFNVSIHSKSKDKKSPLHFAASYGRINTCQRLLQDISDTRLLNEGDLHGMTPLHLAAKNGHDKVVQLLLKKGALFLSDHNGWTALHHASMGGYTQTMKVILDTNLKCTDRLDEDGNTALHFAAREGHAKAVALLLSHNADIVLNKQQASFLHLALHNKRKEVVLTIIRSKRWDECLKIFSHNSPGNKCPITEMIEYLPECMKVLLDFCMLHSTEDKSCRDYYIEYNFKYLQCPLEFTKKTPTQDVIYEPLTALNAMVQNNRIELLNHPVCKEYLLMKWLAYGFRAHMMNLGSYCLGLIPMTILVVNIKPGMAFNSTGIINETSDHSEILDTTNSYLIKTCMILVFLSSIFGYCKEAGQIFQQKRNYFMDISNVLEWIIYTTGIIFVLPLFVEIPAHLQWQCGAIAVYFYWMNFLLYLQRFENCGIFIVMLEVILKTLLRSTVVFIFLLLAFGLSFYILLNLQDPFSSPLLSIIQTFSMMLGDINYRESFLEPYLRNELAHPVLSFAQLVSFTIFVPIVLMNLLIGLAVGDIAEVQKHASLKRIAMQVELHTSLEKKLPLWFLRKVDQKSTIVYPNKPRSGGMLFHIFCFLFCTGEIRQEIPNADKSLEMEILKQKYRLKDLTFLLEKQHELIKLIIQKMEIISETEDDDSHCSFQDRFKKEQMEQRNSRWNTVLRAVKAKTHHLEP
pEC50: −log10 of the molar value.
value type: pEC50

Some molecules with known pEC50 results, for comparison:
1) O=C(Oc1ccc(Cl)cc1)N1CCN(Cc2ccccn2)CC1 < 4.60
2) O=C(Oc1ccc(C(F)(F)F)cc1)N1CCN(c2ncccc2Cl)CC1 5.51
3) CC(C)(C)c1ccc(NC(=O)N2CCN(c3ncccc3Cl)CC2)cc1 5.35
4) O=C(Oc1ccc(Cl)cc1)N1CCN(c2ncccc2C(F)(F)F)CC1 < 4.60

For the molecule CCCCC/C=C\C/C=C\C/C=C\C/C=C\CCCC(=O)NCCc1c[nH]c2ccc(O)cc12 , what pEC50 is on record? < 4.60

What does the record list as pEC50 for O=C(NCCc1c[nH]c2ccc(O)cc12)N1CCN(Cc2ccc3ccccc3n2)CC1 ? < 4.60

Param item = O=C(Oc1cccc(-c2ccccc2)c1)N1CCN(c2ncccc2Cl)CC1 ; retrieve measured pEC50. < 4.60

# query: pEC50 of entry CC(C)(C)c1cccc(OC(=O)N2CCN(c3ncccc3C(F)(F)F)CC2)c1 < 4.60

Give its pEC50 value. Item: O=C(Oc1ccc(C(F)(F)F)cc1)N1CCN(Cc2ccccn2)CC1 < 4.60

Endpoint output: pEC50 of O=C(Nc1ccccc1)N1CCN(Cc2ccc3ccccc3n2)CC1 . Value? < 4.60

---

target: Fatty-acid amide hydrolase 1 (Rattus norvegicus) (UniProt P97612); test: Inhibition of FAAH-mediated hydrolysis of [14C]AEA in rat brain membrane at 50 uM
value type: inhibition (%)
Express the result in % but write the number alone.

Worked cases, answers included:
1) CCCCC/C=C\C/C=C\C/C=C\C/C=C\CCCC(=O)NCCc1c[nH]c2ccc(O)cc12 92
2) O=C(NCCc1c[nH]c2ccc(O)cc12)N1CCN(Cc2ccc3ccccc3n2)CC1 32.6

Give the measured inhibition of CC(C)(C)c1ccc(OC(=O)N2CCN(c3ncccc3C(F)(F)F)CC2)cc1 . 63.1

---

Molecular target: Fatty-acid amide hydrolase 1 (Rattus norvegicus)
Sequence (whole entry): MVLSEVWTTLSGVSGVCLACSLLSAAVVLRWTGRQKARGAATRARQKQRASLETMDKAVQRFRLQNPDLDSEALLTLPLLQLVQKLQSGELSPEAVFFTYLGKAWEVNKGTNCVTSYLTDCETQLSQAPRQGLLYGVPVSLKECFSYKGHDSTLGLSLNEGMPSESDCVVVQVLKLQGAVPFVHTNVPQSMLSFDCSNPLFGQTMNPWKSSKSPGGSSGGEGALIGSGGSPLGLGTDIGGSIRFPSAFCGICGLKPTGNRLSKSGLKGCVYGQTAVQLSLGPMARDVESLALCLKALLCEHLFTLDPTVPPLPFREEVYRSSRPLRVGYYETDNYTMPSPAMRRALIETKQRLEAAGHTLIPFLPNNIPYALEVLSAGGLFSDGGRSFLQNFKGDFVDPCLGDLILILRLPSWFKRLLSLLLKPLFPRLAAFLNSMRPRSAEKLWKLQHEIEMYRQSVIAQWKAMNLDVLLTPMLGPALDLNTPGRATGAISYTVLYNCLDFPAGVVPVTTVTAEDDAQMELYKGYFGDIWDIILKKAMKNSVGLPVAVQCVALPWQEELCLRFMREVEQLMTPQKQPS
Assay: Inhibition of FAAH-mediated hydrolysis of [14C]AEA in rat brain membrane at 50 uM
value type: inhibition
Phrase the answer as number then unit, nothing more needed.

These solved cases illustrate the format of a correct answer.
1. O=C(Oc1ccc(C(F)(F)F)cc1)N1CCN(Cc2ccc3ccccc3n2)CC1 98%
2. O=C(Oc1ccc(C(F)(F)F)cc1)N1CCN(Cc2ccccn2)CC1 92.4%
3. O=C(Oc1cccc(-c2ccccc2)c1)N1CCN(c2ncccc2C(F)(F)F)CC1 97.4%

Which inhibition value is on record for O=C(Oc1cccc(C(F)(F)F)c1)N1CCN(c2ncccc2C(F)(F)F)CC1 ? 98.2%

Which inhibition value belongs to O=C(Oc1cccc(C(F)(F)F)c1)N1CCN(c2ncccc2Cl)CC1 ? 98.3%

State the recorded inhibition for this entry: O=C(NCCc1c[nH]c2ccc(O)cc12)N1CCN(c2ncccc2C(F)(F)F)CC1 35.4%

# query: inhibition of entry CC(C)(C)c1cccc(OC(=O)N2CCN(c3ncccc3Cl)CC2)c1 97.5%

I would be grateful if you could share the reported inhibition for CC(C)(C)c1ccc(NC(=O)N2CCN(c3ncccc3Cl)CC2)cc1 . 24.6%

Entry CC(C)(C)c1cccc(OC(=O)N2CCN(c3ncccc3C(F)(F)F)CC2)c1 has what inhibition? 97%

This collection of values is drawn from ChEMBL document CHEMBL1153698.
